test: NOD1 signaling inhibitors, primary screen, cell-based, luminescence, uHTS (AID 1578); settings: NOD1-driven NF-kB luciferase reporter cells, at 4 µM, hits give high values;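 note: HEK-293T reporter cells stimulated with the NOD1 agonist gamma-tri-DAP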
About 3,000 (1%) of roughly 290,000 compounds were called active. Shown is part of a subset that was picked to be rich in actives.
assayMetric: inhibition

| compound | recordedResult |
| --- | --- |
| CCc1nc2ccccc2c(C(=O)OCC(=O)Nc2ccc(S(=O)(=O)N3CCOCC3)cc2)c1C | -22% (inactive) |
| COc1ccc2c(c1)sc1nc(=O)ccn12 | -3.3% (inactive) |
| CCOC(=O)N1CCN(C(=O)c2ccc3c(c2)sc2nc(-c4ccc(OC)cc4)cn23)CC1 | -15.5% (inactive) |
| CCc1ccc(N2CC(C(=O)Nc3nc4ccc(S(C)(=O)=O)cc4s3)CC2=O)cc1 (stereo not given) | 0.5% (inactive) |
| CC(OC(=O)c1ccccc1O)C(=O)Nc1ccc(Cl)cn1 (stereo not given) | -43.7% (inactive) |

# ---- query compound ----
COc1ccc2c(c1)sc1nc(-c3ccccc3)cn12 has a reported inhibition of 34.4% (active)

* * *

assay: NOD1 signaling inhibitors, primary screen, cell-based, luminescence, uHTS (AID 1578); details: NOD1-driven NF-kB luciferase reporter cells, at 4 µM, hits give high values;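 note: HEK-293T reporter cells stimulated with the NOD1 agonist gamma-tri-DAP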
Hit rate of the full screen: of about 290,000 compounds, about 3,000 (1%) were called active. Only a selection was taken, and actives are over-represented in it overall.
// inhibition lookup, one value per entry
Kindly answer with a numeric value in %, unit omitted.

The reported value for Cc1ccc2c3c(cccc13)-c1ccccc1C2=O in terms of inhibition is -32.2

* * *

assay: NOD1 signaling inhibitors, primary screen, cell-based, luminescence, uHTS (AID 1578); settings: NOD1-driven NF-kB luciferase reporter cells, at 4 µM, hits give high values;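 note: HEK-293T reporter cells stimulated with the NOD1 agonist gamma-tri-DAP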
In all, about 290,000 compounds went through this assay and about 3,000 (1%) were called active. What follows is part of a selection rich in actives, with near analogues and random picks from the rest.
assayMetric: inhibition (%)
Field format: number, assumed %, no unit text.

Take a look at these entries with their results.
| compound | assayMetric | recordedResult |
| --- | --- | --- |
| CCCCNC(=O)NCc1cnn(C)c1C | inhibition | -24.6 |
| CCc1nnc(NS(=O)(=O)c2ccc(NC(=S)NC(=O)c3ccc(OC)c(OC)c3)cc2)s1 | inhibition | -10.1 |
| Cc1nn(CC(=O)N2CCN(C)CC2)c(=O)c2c1sc1ccccc12 | inhibition | -7.7 |
| CCN1CCN(C(=O)Cn2nc(C)c3sc4ccccc4c3c2=O)CC1 | inhibition | -12.8 |
| Cc1cc(C(=O)NC2CC(C)(C)Cc3c2cnn3-c2ccccc2C)c(C)o1 (stereo unspecified) | inhibition | -10.6 |

Per the record, Cc1ccccc1C(=O)OCc1cnc(Cl)s1 has inhibition of -8.8

* * *

experiment: NOD1 signaling inhibitors, primary screen, cell-based, luminescence, uHTS (AID 1578); conditions: NOD1-driven NF-kB luciferase reporter cells, at 4 µM, hits give high values;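 note: HEK-293T reporter cells stimulated with the NOD1 agonist gamma-tri-DAP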
The whole screen tested about 290,000 compounds, of which about 3,000 (1%) were called active. The sample as a whole holds a higher share of actives than the screen did.
assayMetric: inhibition (%)
Give the value, in units of %, as a plain number.

In the examples that follow, each entry is paired with its recorded inhibition.
| compound | recordedResult |
| --- | --- |
| CCOC(=O)Cn1nnnc1CN(Cc1ccc(OC)cc1)Cc1cc2cc(C)cc(C)c2[nH]c1=O | -21.1 |
| COc1ccc(N=Cc2cccc(C)c2O)cc1Cl | -10 |
| S=c1nc(-c2ccccc2)[nH]c2ccccc12 | -26.9 |

Field inhibition (entry CCOc1ccc(N(CC(=O)O)S(=O)(=O)c2ccc(F)cc2)cc1 ) reads 22.2

In plain terms, O=C(CSc1nccc(=O)[nH]1)NC1CCCC1 has a documented inhibition of -1.9

compound O=C(CC1C(=O)NCCN1Cc1cccc(F)c1)NC1CCC1 (centres undefined) , inhibition observed: -28.3

According to the records, this compound O=C(Nc1cccc(Cl)c1)N(Cc1nc2ccccc2c(=O)[nH]1)Cc1cccs1 displays inhibition of -26.5

For C=CCNC(=S)N/N=C/c1ccc(C(C)(C)C)cc1 the compound record lists inhibition as 3.2

Entry under test: COc1cccc(OCc2cc(C(=O)N(C)C3CC(C)(C)NC(C)(C)C3)no2)c1 . Its inhibition was -22.6

The value of inhibition measured for the compound O=[N+]([O-])c1cc(Cc2ccccc2)cc(C=Nc2ccc(N3CCOCC3)cc2)c1O turned out to be 34

Value of inhibition reported for the compound C=CCNC(=S)N/N=C/c1ccc(-c2ccc(Br)cc2)o1 is -6.5

// inhibition value for COc1cc(C=Nc2cccc(C)c2)c(O)c([N+](=O)[O-])c1 : -20.1

Given item COc1ccc(CNC(=O)CSc2nc3ccc(C)cc3[nH]2)cc1OC , the value recorded as its inhibition is 0.6

O=c1c2ccccc2cnn1-c1ccc(Cl)nn1 yielded inhibition of -19

Cn1ncc2c(O/N=C(\N)c3ccc(C(F)(F)F)cc3)ncnc21 has a reported inhibition of -5.2

For reference, reported inhibition for COc1ccc2oc(C(=O)NC(C)(C)C)c(C)c2c1 stands at -42.6

The recorded inhibition for NC(=S)N/N=C/c1ccc(C(F)(F)F)cc1 is -16

# inhibition of COc1cccc(C(=O)N2CCN(C(=O)C3CC3)CC2)c1 = -26.7

Measured inhibition, C=CCNC(=S)N/N=C/c1ccc(-c2ccc(OC)cc2)o1 : 59.5

Briefly, inhibition measured for C=CCNC(=S)N/N=C/c1ccc(C(F)(F)F)cc1 : 52.7

compound COC(=O)Nc1ccc(S(=O)(=O)NC2CCS(=O)(=O)C2)cc1 (centres undefined) , inhibition observed: -9.9

Please fill in: inhibition reported for O=C(c1ccc(Cl)cc1)N1CCCCC(Sc2nnc(-c3ccc4c(c3)OCO4)o2)C1=O (centres undefined) = 57.8

Measured inhibition of COc1ccc(C(=O)Nc2cc(-c3nn4c(C)nnc4s3)ccc2C)cc1 : -18.2

Entry Cc1ccc(O)c(C=Nc2cc(C)ccc2O)c1 , inhibition reported as -25.5

Data origin: PubChem BioAssay AID1578
